Quick list: PERCENT VIABILITY per entry.
- System: HEK293T cells
- test summary: Cell viability in the high-throughput screen (cell nuclei numbers)
- run parameters: 10 μM compound, cell nuclei numbers
- Procedure: HEK293T cells were plated in 384 well plates at the density of 5,000 cells/well. Cells were treated by 10 μM candidate compounds 30 min before transfection of 15 ng mCherry-FSE-GFP(−1) plasmid DNA in each well. […] Cell nuclei, mCherry, and GFP signals were imaged using an automated fluorescent microscope with a 10x objective, and the acquired images were quantified using the CellProfiler image analysis package. Cell nuclei numbers were quantified as the metric for cell viability. […]
Structures can show the parent of a compound that is named as a salt.
measure name: PERCENT VIABILITY

CCOC(=O)OC(C)OC1=C(C(=O)Nc2ccccn2)N(C)S(=O)(=O)c2ccccc21 (stereo not drawn)	284.3%
CCN(CC)CCCC(C)Nc1c2ccc(Cl)cc2nc2ccc(OC)cc12 (stereo not drawn) [QUINACRINE HYDROCHLORIDE]	147.8%
C[C@@H]1O[C@@H](O[C@H]2C[C@@H](O)[C@]3(CO)[C@H]4[C@H](O)C[C@]5(C)[C@@H](C6=CC(=O)OC6)CC[C@]5(O)[C@@H]4CC[C@]3(O)C2)[C@H](O)[C@H](O)[C@H]1O	16.4%
COc1ccc(C[C@H](N)C(=O)NC2[C@@H](O)[C@H](n3cnc4c(N(C)C)ncnc43)O[C@@H]2CO)cc1 (stereo partly drawn)	26.1%
CC(=O)[C@]1(O)Cc2c(O)c3c(c(O)c2[C@@H](O[C@H]2C[C@H](N)[C@H](O)[C@H](C)O2)C1)C(=O)c1ccccc1C3=O	10.75%
O=C1OC2(c3ccccc31)c1cc(I)c(O)c(I)c1Oc1c2cc(I)c(O)c1I [ERYTHROSINE SODIUM]	100.7%
CCCCC(=O)O[C@H]1CC[C@H]2[C@@H]3CCc4cc(O)ccc4[C@H]3CC[C@]12C [ESTRADIOL VALERATE]	204.4%
CCOC(=O)Nc1ccc(NCc2ccc(F)cc2)nc1N	110.5%
O=C([O-])c1ccccc1-c1c2cc(Br)c(=O)cc-2oc2[c]([Hg+])c([O-])c(Br)cc12.[Na+].[Na+].[OH-]	167.4%
Cc1cc(-c2ccc(/N=N/c3ccc4c(S(=O)(=O)O)cc(S(=O)(=O)O)c(N)c4c3O)c(C)c2)ccc1/N=N/c1ccc2c(S(=O)(=O)O)cc(S(=O)(=O)O)c(N)c2c1O	159.7%
Cc1cc(/C=C/c2ccc3cc(N(C)C)ccc3[n+]2C)c(C)n1-c1ccccc1 [PYRVINIUM PAMOATE]	15.1%
O=C(Nc1ccc(Cl)cc1)Nc1ccc(Cl)c(C(F)(F)F)c1	54.7%
Cc1cccc(C)c1N=C1NCCCS1	196.8%
CN(C)c1ccc(C(=C2C=CC(=[N+](C)C)C=C2)c2ccc(N(C)C)cc2)cc1	12.5%
CCCC1(CCC)CCC2(CCN(CCCN(CC)CC)C2)CC1	7.2%

----------
- Tested on: SARS-CoV-2 FSE (−1 PRF)
- test summary: cells
- Type: cell-based
- run parameters: Severe acute respiratory syndrome coronavirus 2, HEK-293T, 24 h; read-out: PERCENT EFFECT (Increased GFP/Red Ratio)
Where a name gives a salt, the structure may show the parent alone.
This listing pairs compounds with measured activation at 10 µM.
measure name: activation at 10 µM

COc1ccc(C[C@H](N)C(=O)NC2[C@@H](O)[C@H](n3cnc4c(N(C)C)ncnc43)O[C@@H]2CO)cc1 (stereo partly shown) [puromycin]	18.9%
COc1cccc2c1C(=O)c1c(O)c3c(c(O)c1C2=O)C[C@@](O)(C(=O)CO)C[C@@H]3O[C@H]1C[C@H](N)[C@@H](O)[C@H](C)O1 [EPIRUBICIN HYDROCHLORIDE]	-56.4%
CC[C@]1(O)C[C@@H]2CN(CCc3c([nH]c4ccccc34)[C@@](C(=O)OC)(c3cc4c(cc3OC)N(C)[C@H]3[C@@](O)(C(N)=O)[C@H](O)[C@]5(CC)C=CCN6CC[C@]43[C@@H]65)C2)C1 [Vindesine Sulfate]	16.8%
CCN(CC)CCNC(=O)c1cc(Br)c(N)cc1OC [BROMOPRIDE]	-35.5%
CCN(CCO)CCCC(C)Nc1ccnc2cc(Cl)ccc12 (stereo not shown) [HYDROXYCHLOROQUINE SULFATE]	18.9%
Cc1cc(C)c(Nc2ccnc(Nc3ccc(C#N)cc3)n2)c(C)c1 [dapivirine]	24%
C[C@@H]1O[C@@H](O[C@H]2C[C@@H](O)[C@]3(CO)[C@H]4[C@H](O)C[C@]5(C)[C@@H](C6=CC(=O)OC6)CC[C@]5(O)[C@@H]4CC[C@]3(O)C2)[C@H](O)[C@H](O)[C@H]1O [Ouabain]	15.7%

Value source: patent US20230364074A1
